# target.desc: human recombinant CK2α1 (Homo sapiens, UniProt P68400)
# Construct: purchased Promega V4482
# Sequence (P68400 whole entry): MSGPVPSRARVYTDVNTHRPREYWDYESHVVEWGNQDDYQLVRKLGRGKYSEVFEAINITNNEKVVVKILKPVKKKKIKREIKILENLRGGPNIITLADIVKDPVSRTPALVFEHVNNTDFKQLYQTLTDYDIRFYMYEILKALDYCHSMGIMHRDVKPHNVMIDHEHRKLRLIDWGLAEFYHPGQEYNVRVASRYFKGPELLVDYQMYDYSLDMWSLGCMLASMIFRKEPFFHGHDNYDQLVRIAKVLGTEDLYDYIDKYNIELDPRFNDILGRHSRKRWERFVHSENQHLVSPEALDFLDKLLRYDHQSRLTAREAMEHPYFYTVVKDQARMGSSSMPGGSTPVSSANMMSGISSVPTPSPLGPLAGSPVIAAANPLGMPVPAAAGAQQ
# assay.notes: CK2 ADP-Glo kinase assay
# Format: biochemical
# assay.setup: 50 μM compound, 10 μM ATP; n.a. = not active; read-out: CK2 Inhibition at 50 μM, m ± SD (%)
Below, each entry is listed alongside its reported inhibition at 50 µM.
All answers are understood in %, so give the number only.

molecule | measure.unit | inhibition at 50 µM
CSc1nn2c(c1C#N)NC=C([N+](=O)[O-])C2c1ccccc1 (centres unmarked) [Compound 5l] | % | 48.4
CCC1=C([N+](=O)[O-])C(c2ccc([N+](=O)[O-])cc2)n2nc(C(F)(F)F)nc2N1 (centres unmarked) [Compound 6e] | % | 39.8
CCC1=C([N+](=O)[O-])C(c2cccs2)n2ncc(C#N)c2N1 (centres unmarked) [Compound 5k] | % | 66.8
CCC1=C([N+](=O)[O-])C(c2ccc(OC)cc2)n2ncc(C#N)c2N1 (centres unmarked) [Compound 5i] | % | 3.66

Attention now turns to another entry.
Quote inhibition at 50 µM with test system human recombinant CK2α1 (Homo sapiens, UniProt P68400) for CCC1=C([N+](=O)[O-])C(c2ccc([N+](=O)[O-])cc2)n2nc(SC)c(C#N)c2N1 (centres unmarked) [Compound 5n] 19.8

###

# Test system: Hos cells
# assay.notes: MTT test, osteosarcoma cells
# Format: cell-based, human
# assay.setup: MTT, 72 h incubation
Use 100 µM as the dividing line for Cytotoxicity index IC50 ± SE, Hos, with the line itself on the Y side and lower values as N.

molecule | class
CCC1=C([N+](=O)[O-])C(c2ccc([N+](=O)[O-])cc2)n2nc(SC)c(C#N)c2N1 (stereo not shown) | Y
N.N.[Cl][Pt][Cl] [cPt, Cisplatin, reference compound] | N
CCOC(=O)c1cnn2c1NC(CC)=C([N+](=O)[O-])C2c1ccccc1 (stereo not shown) | Y
CSc1nn2c(c1C#N)NC=C([N+](=O)[O-])C2c1ccccc1 (stereo not shown) | N
CC1=C([N+](=O)[O-])C(c2ccccc2)n2nc(C(F)(F)F)nc2N1 (stereo not shown) | N

Could you tell me if the measured Cytotoxicity index IC50 ± SE, Hos of CCC1=C([N+](=O)[O-])C(c2ccc(O)c(OC)c2)n2ncc(C#N)c2N1 (stereo not shown) reaches 100 µM or more? Y

Does the reported Cytotoxicity index IC50 ± SE, Hos for CSc1nn2c(c1C#N)NC(C)=C([N+](=O)[O-])C2c1ccccc1 (stereo not shown) fall at or above the 100 µM mark? N

###

# Tested on: Hek-293 cells
# assay.notes: MTT test, human embryonic kidney cells
# Type: cell-based
# assay.setup: 72 h incubation
measure: Cytotoxicity index IC50 ± SE, Hek-293 (µM)
The answer is to be given in µM; state only the numeric part.

Please list Cytotoxicity index IC50 ± SE, Hek-293 recorded for the molecule CC1=C([N+](=O)[O-])C(c2cccs2)n2nccc2N1 (stereo not drawn) 543.74

Give reported Cytotoxicity index IC50 ± SE, Hek-293 value for CCC1=C([N+](=O)[O-])C(c2ccc(O)c(OC)c2)n2ncc(C#N)c2N1 (stereo not drawn) 581.39

Please give the documented Cytotoxicity index IC50 ± SE, Hek-293 of N.N.[Cl][Pt][Cl] [cPt, Cisplatin, reference compound] 4.41

Quick one: give measured Cytotoxicity index IC50 ± SE, Hek-293 for CCC1=C([N+](=O)[O-])C(c2ccc([N+](=O)[O-])cc2)n2ncc(C#N)c2N1 (stereo not drawn) 153.47
